Target: human KISS1R receptor (human, UniProt Q969F8 1-398)
Sequence (Q969F8 whole entry): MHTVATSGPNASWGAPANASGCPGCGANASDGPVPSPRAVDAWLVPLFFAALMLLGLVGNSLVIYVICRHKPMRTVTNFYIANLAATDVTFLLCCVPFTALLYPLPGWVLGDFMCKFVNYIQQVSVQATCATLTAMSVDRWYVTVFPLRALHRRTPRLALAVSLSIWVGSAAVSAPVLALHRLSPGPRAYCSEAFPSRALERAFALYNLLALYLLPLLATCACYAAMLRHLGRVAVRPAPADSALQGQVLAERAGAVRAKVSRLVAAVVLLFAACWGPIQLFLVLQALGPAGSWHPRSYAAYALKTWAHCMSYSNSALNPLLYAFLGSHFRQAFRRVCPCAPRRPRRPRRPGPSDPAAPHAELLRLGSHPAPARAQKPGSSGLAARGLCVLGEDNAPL
Assay: cell-based or functional assay
[ ]: non-standard residue; d: D form. Arg(Me) = CNC(=N)NCCC[C@H](N)C(=O)O
MEASUREMENT LABEL: EC50 (nM), intracellular calcium mobilization of cells expressing human KISS1R

>>> recorded_value("Ac-YNWNSFGL[Arg(Me)]Y-NH2 (also: Gly7-Leu8 peptide bond replaced by 1,4-disubstituted 1,2,3-triazole) [peptide compound C3, Ac-Tyr-Asn-Trp-Asn-Ser-Phe-GlyΨ[Tz]Leu-Arg(Me)-Tyr-NH2]")
0.014
>>> recorded_value("Ac-YNWNSFGLRY-NH2 (also: Gly7-Leu8 peptide bond replaced by 1,4-disubstituted 1,2,3-triazole) [peptide compound C2, Ac-Tyr-Asn-Trp-Asn-Ser-Phe-GlyΨ[Tz]Leu-Arg-Tyr-NH2]")
0.029
>>> recorded_value("Ac-YNWNSFGLRY-NH2 (also: Phe6-Gly7 and Gly7-Leu8 peptide bonds replaced by 1,4-disubstituted 1,2,3-triazoles) [peptide compound C5, Ac-Tyr-Asn-Trp-Asn-Ser-PheΨ[Tz]GlyΨ[Tz]Leu-Arg-Tyr-NH2]")
44
>>> recorded_value("Ac-YNWNSFGLRY-NH2 [peptide compound Comp.3, Ac-Tyr-Asn-Trp-Asn-Ser-Phe-Gly-Leu-Arg-Tyr-NH2]")
0.1
>>> recorded_value("H-YNWNSFGLRY-NH2 [comparative peptide compound Comp.1 (mKP10), H-Tyr-Asn-Trp-Asn-Ser-Phe-Gly-Leu-Arg-Tyr-NH2]")
2.9
>>> recorded_value("H-YNWNSFGLRY-NH2 (also: Gly7-Leu8 peptide bond replaced by 1,4-disubstituted 1,2,3-triazole) [peptide compound C1, H-Tyr-Asn-Trp-Asn-Ser-Phe-GlyΨ[Tz]Leu-Arg-Tyr-NH2]")
0.5
>>> recorded_value("Ac-YNK(Ac)NSFGL[Arg(Me)]Y-NH2 (also: Gly7-Leu8 peptide bond replaced by 1,4-disubstituted 1,2,3-triazole) [peptide compound C4, Ac-Tyr-Asn-Lys(Ac)-Asn-Ser-Phe-GlyΨ[Tz]Leu-Arg(Me)-Tyr-NH2]")
0.011
